Taken from PubChem BioAssay (NCI).

Test system: SNB-75 CNS
ASSAY_TEXT: NCI tumour cell line growth inhibition, 48 h
REPORTED_PROPERTY: log10 TGI (log10 of the value in µM)
Transform log10 | Measure TGI | Unit µM

Some solved cases for reference:
OC(CCN1CCN(CCOC(c2ccc(F)cc2)c2ccc(F)cc2)CC1)c1ccccc1 (centres undefined)	1.44
CC(C)C(OC(=O)c1cc(NC(=S)c2ccccc2)ccc1Cl)C(C)C	1.77
CN(C)c1ncc(-c2c[nH]c3ccccc23)nc1-c1c[nH]c2ccccc12	0.75
O=C(/C=C/c1ccccc1)c1ccc(O)c(CN2CCN(c3cc4c(cc3F)c(=O)c(C(=O)O)cn4C3CC3)CC2)c1	0.99

The molecule listed as Fc1ccc(C(OCCN2CC3CC2CN3CCCc2ccccc2)c2ccc(F)cc2)cc1 (centres undefined) shows log10 TGI equal to 0.86

The molecule listed as COc1ccc(OC)c(-c2cn3nc(-c4c[nH]c5ccc(Br)cc45)sc3n2)c1 shows log10 TGI equal to 1.39

The molecule listed as CC(C)(C)c1ccc(NC(=O)c2cc(=O)c3ccccc3[nH]2)c(C(C)(C)C)c1O shows log10 TGI equal to 1.34

The molecule listed as CCCCCCCCOC(=O)c1cc(O)c(O)c(O)c1 shows log10 TGI equal to 1.58

The molecule listed as C=C(Cl)C(Br)(CCl)CCC(Cl)C(C)C (centres undefined) (tested in a mixture with another compound) shows log10 TGI equal to 0.37

The molecule listed as O=C(Cc1ccccc1)NN1C(=O)C(Cl)C1c1cc(Br)cc(Br)c1O (centres undefined) shows log10 TGI equal to 1.75

The molecule listed as CCCC/C=C1\CCC(CN2CCOCC2)C1=O (centres undefined) shows log10 TGI equal to 1.32

The molecule listed as Cc1occc1C(=S)Nc1ccc(Cl)c(C(=O)OCC2CC2)c1 shows log10 TGI equal to 1.85

The molecule listed as CCN(CC)CC1CCCCN1CC(=O)N1c2ccc(Br)cc2C(=O)Nc2cccnc21 (centres undefined) shows log10 TGI equal to 1.77

The molecule listed as N[C@H]1CCc2c1nc1c(c2-c2ccccc2)CC[C@@H]1N shows log10 TGI equal to 1.47

The molecule listed as COC(=O)C1=C(O)C(C(=O)OC)[C@@]2(O)[C@@H](C(=O)OC)C(c3ccc(OC(=O)/C(=C/c4ccccc4)c4ccccc4)cc3)C[C@@H]1[C@@H]2C(=O)OC (some centres undefined) shows log10 TGI equal to 1.55

The molecule listed as COc1cccc2c1C(=O)c1c(O)c3c(c(O)c1C2=O)C[C@@](O)(C(=O)COC(=O)c1cccnc1)C[C@@H]3OC1CC(N)C(O)C(C)O1 (some centres undefined) shows log10 TGI equal to -0.27

The molecule listed as COc1ccc(OC)c2c1C(=O)C(Cl)=C(Cl)C2=O shows log10 TGI equal to 1.46

The molecule listed as COc1ncnc2c1ncn2C/C(Br)=C(\Br)CCl shows log10 TGI equal to 0.93
